# assay_overview: Half life in pig plasma at 3 mg/kg, iv measured upto 240 mins by LC-MS/MS analysis
# Assay type: ADME, organism-based, Sus scrofa
measured_attribute: half-life (h)

>  <smiles>
C=C[C@]1(C)C[C@@H](OC(=O)Cn2cc(-c3ccc(Cn4cnc5c(N6CCNCC6)ncnc54)nc3)nn2)[C@]2(C)[C@H](C)CC[C@]3(CCC(=O)[C@H]32)[C@@H](C)[C@@H]1O

>  <obs_value>
1.25

$$$$

###

# assay_overview: Half life in NMRI female mouse at 20 mg/kg, sc by HPLC analysis
# Assay type: ADME, organism-based
# condition: in vivo
measured_attribute: half-life (h)

>  <smiles>
C=C[C@]1(C)C[C@@H](OC(=O)Cn2cc(-c3ccc(Cn4cnc5c(N6CCNCC6)ncnc54)nc3)nn2)[C@]2(C)[C@H](C)CC[C@]3(CCC(=O)[C@H]32)[C@@H](C)[C@@H]1O

>  <obs_value>
2.07

$$$$

###

# assay_overview: Clearance in pig plasma at 3 mg/kg, iv measured upto 240 mins by LC-MS/MS analysis
# Type: ADME, organism-based, Sus scrofa
measured_attribute: clearance (mL/min/kg)

>  <smiles>
C=C[C@]1(C)C[C@@H](OC(=O)Cn2cc(-c3ccc(Cn4cnc5c(N6CCNCC6)ncnc54)nc3)nn2)[C@]2(C)[C@H](C)CC[C@]3(CCC(=O)[C@H]32)[C@@H](C)[C@@H]1O

>  <measured_attribute>
clearance

>  <obs_value>
84.7

$$$$

###

# assay_overview: in vitro
# condition: human, microsomes
measured_attribute: CLint scaled at 0.5 h, 1 µM (mL/min/kg)

>  <compound>
O=C(O)Cc1ccccc1Nc1c(Cl)cccc1Cl [DICLOFENAC]

>  <measured_attribute>
CLint scaled at 0.5 h, 1 µM

>  <reading_unit>
mL/min/kg

>  <obs_value>
332

$$$$

###

# assayed_system: Cytochrome P450 3A4 (Homo sapiens, UniProt P08684)
# Sequence (P08684 whole entry): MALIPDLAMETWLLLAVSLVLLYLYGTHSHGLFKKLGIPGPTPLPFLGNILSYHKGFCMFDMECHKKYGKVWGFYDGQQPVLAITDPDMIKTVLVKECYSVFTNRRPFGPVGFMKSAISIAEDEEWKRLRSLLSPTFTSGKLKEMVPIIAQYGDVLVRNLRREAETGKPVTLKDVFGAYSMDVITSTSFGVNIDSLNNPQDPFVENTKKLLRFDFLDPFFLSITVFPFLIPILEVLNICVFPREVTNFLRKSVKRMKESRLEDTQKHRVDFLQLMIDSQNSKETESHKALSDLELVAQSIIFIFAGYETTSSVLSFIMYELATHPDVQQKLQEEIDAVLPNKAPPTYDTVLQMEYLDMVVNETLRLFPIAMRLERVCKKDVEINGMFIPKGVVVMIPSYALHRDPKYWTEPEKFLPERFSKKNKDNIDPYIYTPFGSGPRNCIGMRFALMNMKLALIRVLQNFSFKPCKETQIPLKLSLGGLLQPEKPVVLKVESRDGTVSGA

>  <smiles>
C=C[C@]1(C)C[C@@H](OC(=O)CS[C@@H]2CC[C@@H](N)C[C@H]2O)[C@]2(C)[C@H](C)CC[C@]3(CCC(=O)[C@H]32)[C@@H](C)[C@@H]1O

>  <Ki>
860 nM

$$$$

###

# assay_overview: Elimination rate constant in NMRI female mouse at 20 mg/kg, sc by HPLC analysis
# Assay type: ADME, organism-based
# condition: in vivo
measured_attribute: k el

>  <smiles>
C=C[C@]1(C)C[C@@H](OC(=O)Cn2cc(-c3ccc(Cn4cnc5c(N6CCNCC6)ncnc54)nc3)nn2)[C@]2(C)[C@H](C)CC[C@]3(CCC(=O)[C@H]32)[C@@H](C)[C@@H]1O

>  <obs_value>
9.33e-05 s⁻¹

$$$$

###

# assay_overview: Bioavailability in NMRI female mouse at 20 mg/kg, sc by HPLC analysis
# Assay type: ADME, organism-based
# condition: in vivo

>  <smiles>
C=C[C@]1(C)C[C@@H](OC(=O)Cn2cc(-c3ccc(Cn4cnc5c(N6CCNCC6)ncnc54)nc3)nn2)[C@]2(C)[C@H](C)CC[C@]3(CCC(=O)[C@H]32)[C@@H](C)[C@@H]1O

>  <bioavailability (%)>
52

$$$$

###

# assay_overview: Apparent permeability from basolateral to apical side in human Caco-2 cells at 100 uM measured upto 120 mins by LC-MS analysis
# Format: ADME, cell-based

>  <compound>
C=C[C@]1(C)C[C@@H](OC(=O)Cn2cc(-c3ccc(Cn4cnc5c(N6CCNCC6)ncnc54)nc3)nn2)[C@]2(C)[C@H](C)CC[C@]3(CCC(=O)[C@H]32)[C@@H](C)[C@@H]1O

>  <Papp B→A at 2 h, 100 µM (×10⁻⁶ cm/s)>
23

$$$$
>  <compound>
C=C[C@]1(C)C[C@@H](OC(=O)CS[C@@H]2CC[C@@H](N)C[C@H]2O)[C@]2(C)[C@H](C)CC[C@]3(CCC(=O)[C@H]32)[C@@H](C)[C@@H]1O [LEFAMULIN]

>  <Papp B→A at 2 h, 100 µM (×10⁻⁶ cm/s)>
25.7

$$$$

###

# assay_overview: in vitro
# condition: mouse, microsomes
measured_attribute: half-life at 0.5 h, 1 µM (min)

>  <smiles>
O=C(O)Cc1ccccc1Nc1c(Cl)cccc1Cl

>  <measured_attribute>
half-life at 0.5 h, 1 µM

>  <obs_value>
51.7

$$$$

###

# assay_overview: Tmax in pig urine at 3 mg/kg, iv measured upto 240 mins by LC-MS/MS analysis
# Assay type: ADME, organism-based, Sus scrofa

>  <smiles>
C=C[C@]1(C)C[C@@H](OC(=O)Cn2cc(-c3ccc(Cn4cnc5c(N6CCNCC6)ncnc54)nc3)nn2)[C@]2(C)[C@H](C)CC[C@]3(CCC(=O)[C@H]32)[C@@H](C)[C@@H]1O

>  <reading_unit>
h

>  <Tmax>
1

$$$$

###

# assay_overview: Elimination rate constant in NMRI female mouse at 30 mg/kg, iv by HPLC analysis
# Format: ADME, organism-based
# condition: in vivo

>  <smiles>
C=C[C@]1(C)C[C@@H](OC(=O)Cn2cc(-c3ccc(Cn4cnc5c(N6CCNCC6)ncnc54)nc3)nn2)[C@]2(C)[C@H](C)CC[C@]3(CCC(=O)[C@H]32)[C@@H](C)[C@@H]1O

>  <reading_unit>
s⁻¹

>  <k el>
0.000218

$$$$

###

# assay_overview: Bioavailability in pig plasma at 10 mg/kg, po measured upto 240 mins by LC-MS/MS analysis
# Type: ADME, organism-based, Sus scrofa
measured_attribute: bioavailability (%)

>  <smiles>
C=C[C@]1(C)C[C@@H](OC(=O)Cn2cc(-c3ccc(Cn4cnc5c(N6CCNCC6)ncnc54)nc3)nn2)[C@]2(C)[C@H](C)CC[C@]3(CCC(=O)[C@H]32)[C@@H](C)[C@@H]1O

>  <measured_attribute>
bioavailability

>  <reading_unit>
%

>  <obs_value>
6

$$$$

###

Measured efflux ratio at 2 h, 280 µM, listed per entry.
# assay_overview: Efflux ratio of apparent permeability from basolateral to apical side over apical to basolateral side in human Caco-2 cells at 280 uM and measured after 120 mins by LC-MS analysis
# Assay type: ADME, cell-based

>  <smiles>
C=C[C@]1(C)C[C@@H](OC(=O)CS[C@@H]2CC[C@@H](N)C[C@H]2O)[C@]2(C)[C@H](C)CC[C@]3(CCC(=O)[C@H]32)[C@@H](C)[C@@H]1O

>  <efflux ratio at 2 h, 280 µM>
3.9

$$$$
>  <smiles>
C=C[C@]1(C)C[C@@H](OC(=O)Cn2cc(-c3ccc(Cn4cnc5c(N6CCNCC6)ncnc54)nc3)nn2)[C@]2(C)[C@H](C)CC[C@]3(CCC(=O)[C@H]32)[C@@H](C)[C@@H]1O

>  <efflux ratio at 2 h, 280 µM>
2.5

$$$$

###

# assay_overview: Half life in pig urine at 10 mg/kg, po measured upto 240 mins by LC-MS/MS analysis
# Type: ADME, organism-based, Sus scrofa

>  <smiles>
C=C[C@]1(C)C[C@@H](OC(=O)Cn2cc(-c3ccc(Cn4cnc5c(N6CCNCC6)ncnc54)nc3)nn2)[C@]2(C)[C@H](C)CC[C@]3(CCC(=O)[C@H]32)[C@@H](C)[C@@H]1O

>  <half-life, h>
2.2

$$$$

###

# assay_overview: Plasma protein binding in human at 5 to 15 uM incubated for 5 hrs by LC-MS analysis
# Type: ADME, cell-free
# condition: dose 5-15 µM, read-out: PPB (converted)
// values below are reported fraction unbound at 5 h, up to 15 µM

>  <smiles>
C=C[C@]1(C)C[C@@H](OC(=O)CS[C@@H]2CC[C@@H](N)C[C@H]2O)[C@]2(C)[C@H](C)CC[C@]3(CCC(=O)[C@H]32)[C@@H](C)[C@@H]1O

>  <fraction unbound at 5 h, up to 15 µM>
0.34

$$$$
>  <smiles>
C=C[C@]1(C)C[C@@H](OC(=O)Cn2cc(-c3ccc(Cn4cnc5c(N6CCNCC6)ncnc54)nc3)nn2)[C@]2(C)[C@H](C)CC[C@]3(CCC(=O)[C@H]32)[C@@H](C)[C@@H]1O

>  <fraction unbound at 5 h, up to 15 µM>
0.27

$$$$

###

# assay_overview: Apparent permeability from apical to basolateral side in human Caco-2 cells at 100 uM measured upto 120 mins by LC-MS analysis
# Format: ADME, cell-based
# reported Papp A→B at 2 h, 100 µM; entries follow
measured_attribute: Papp A→B at 2 h, 100 µM (×10⁻⁶ cm/s)

>  <molecule>
C=C[C@]1(C)C[C@@H](OC(=O)CS[C@@H]2CC[C@@H](N)C[C@H]2O)[C@]2(C)[C@H](C)CC[C@]3(CCC(=O)[C@H]32)[C@@H](C)[C@@H]1O [LEFAMULIN]

>  <measured_attribute>
Papp A→B at 2 h, 100 µM

>  <obs_value>
0.63

$$$$
>  <molecule>
C=C[C@]1(C)C[C@@H](OC(=O)Cn2cc(-c3ccc(Cn4cnc5c(N6CCNCC6)ncnc54)nc3)nn2)[C@]2(C)[C@H](C)CC[C@]3(CCC(=O)[C@H]32)[C@@H](C)[C@@H]1O

>  <measured_attribute>
Papp A→B at 2 h, 100 µM

>  <obs_value>
0.48

$$$$
